Every entry's value here was drawn from patent US20220306762A1.

Measured FACs 10 ug/ml (percent gated), listed per entry.
Biological target: T1, murine CD38 on transiently transfected Expi293 cells (Origene MC208001) (murine, UniProt P56528 1-304)
T1 construct: whole, on cells; also called Murine (FACs)
T1 sequence (looked up): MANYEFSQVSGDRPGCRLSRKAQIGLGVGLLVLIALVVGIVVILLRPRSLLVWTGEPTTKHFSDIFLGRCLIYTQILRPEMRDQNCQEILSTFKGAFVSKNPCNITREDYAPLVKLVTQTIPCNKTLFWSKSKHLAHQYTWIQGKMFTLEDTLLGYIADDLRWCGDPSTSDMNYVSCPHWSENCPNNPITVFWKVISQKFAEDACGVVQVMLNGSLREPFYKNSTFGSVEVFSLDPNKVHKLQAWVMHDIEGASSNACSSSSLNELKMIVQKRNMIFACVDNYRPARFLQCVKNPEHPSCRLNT
Experiment: flow cytometry, transfected Expi293 cells;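 also: antibody binding to Expi293 cells transiently expressing human or murine CD38, antibodies applied at 10 ug/ml for 60 min on ice, read by flow cytometry as percent gated cells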
Report as a plain number; the unit % is understood.

Examples from the recorded data:
Binder: 40566p1.A8 (scFv, V domains shown, tested as scFv-Fc supernatant) VH: DVQLVESGGGVVRPGESLRLSCAASGFTFDNYDMTWVRQAPGEGLEWVSFISSRGTFTYYTDSVKGRFTISRDNSKNTLYLQMNSLRAEDTAIYYCAKDSGEYYFFDYWGLGTLVTVSS VL: EIVMTQSPATLSVSPGERATFSCRASQSVNSKLAWYQQKPGQAPRLLIYGASRRATGIPDRFSGSGSGTEFTLTISSLQSEDFAVYYCQQYYDWPPLTFGGGTKVEIK
Observed: 70.8

Binder: 40769p1.1.H1 (scFv, V domains shown, tested as scFv-Fc supernatant) VH: EVQLLESGGGLVQPGGSLRLSCAASGFTFSDYWMNWVRQAPGKGLEWVSTISSGGSMIYHADSVKGRFTISRDNSKNTLYLQMNSLRPEDTAVYYCAKDNWNDYYGMDVWGQGTTVTVSS VL: QSVLTQPPSASGTPGQRVNISCSGSSSNIRYNYVYWYQQVPGTAPKLLIYKDDQRPSGVPDRFSGSKSGTSASLAISELQSEDEADYYCATWDGSLNARVFGGGTKLTVL
Observed: 3.13

Binder: 40769p1.1.H3 (scFv, V domains shown) VH: EVQLLESGGGLVQPGGSLRLSCAASGFAFNDYLMSWVRQAPGKGLEWVSTISWSGGSTYYADSVKGRFTISRDNSKNTLYLQMNSLRAEDTALYYCARDRYRYNYYYFMDVWGQGTTVTV VL: QSVLTQPPSASGTPGQRVTISCSGSTSDSPYDRIDWYQQLPGTAPKLLIYKDDQRPSGVPDRFSGSKSGTSASLAISGLQSEDEADYYCATWDAMLSAWVFGGGTKLTVL
Observed: 3.84

Binder: 40596p1.A5 (scFv, V domains shown, tested as scFv-Fc supernatant) VH: EVQLLESGGGLVQPGGSLRLSCAASGFDFSNNAMSWVRQAPGKGLEYVAGSGWSGSFIFYADSVKGRFTVSRDNSENTLYLQMNSLRAEDTAVYYCAKNPGFGEMDVWGQGTTVTVSS VL: EIVLTQSPGSLSLSPGERATLRCRASQSIGSNLAWYQQKPGQAPSLLIYGASTRAADIPDRFSGSGSGTEFTLTITSLQSEDFAVYYCQQYNSWPPLTFGGGTKVEIK
Observed: 68.7

Please examine the following record next.
Challenge: Returns the measured FACs 10 ug/ml (percent gated) for the input binder. Input: 40566p1.D2 (scFv, V domains shown, tested as scFv-Fc supernatant) VH: DVQLVESGGGVVRPGESLRLSCAASGFTFDNYDMTWVRQAPGEGLEWVSFISSRGTFTYYTDSVKGRFTISRDNSKNTLYLQMNSLRAEDTAIYYCTKDSGEYYFFDYWGLGTLVTVSS VL: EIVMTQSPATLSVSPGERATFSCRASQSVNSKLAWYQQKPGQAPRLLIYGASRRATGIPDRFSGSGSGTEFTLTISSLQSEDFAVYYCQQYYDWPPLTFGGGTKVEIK
Response given: 71.2
